Below: a set of entries, each annotated with reported IC50.
biological target: UniProt Q9Y5Y9; assay: SyncroPatch384PE assay (automated patch clamp); assay type: cell-based; conditions: inactivated state block (P2 measurement), human Nav1.8/b3 CHO cells, read-out: P2 IC50
Sequence (Q9Y5Y9 whole entry): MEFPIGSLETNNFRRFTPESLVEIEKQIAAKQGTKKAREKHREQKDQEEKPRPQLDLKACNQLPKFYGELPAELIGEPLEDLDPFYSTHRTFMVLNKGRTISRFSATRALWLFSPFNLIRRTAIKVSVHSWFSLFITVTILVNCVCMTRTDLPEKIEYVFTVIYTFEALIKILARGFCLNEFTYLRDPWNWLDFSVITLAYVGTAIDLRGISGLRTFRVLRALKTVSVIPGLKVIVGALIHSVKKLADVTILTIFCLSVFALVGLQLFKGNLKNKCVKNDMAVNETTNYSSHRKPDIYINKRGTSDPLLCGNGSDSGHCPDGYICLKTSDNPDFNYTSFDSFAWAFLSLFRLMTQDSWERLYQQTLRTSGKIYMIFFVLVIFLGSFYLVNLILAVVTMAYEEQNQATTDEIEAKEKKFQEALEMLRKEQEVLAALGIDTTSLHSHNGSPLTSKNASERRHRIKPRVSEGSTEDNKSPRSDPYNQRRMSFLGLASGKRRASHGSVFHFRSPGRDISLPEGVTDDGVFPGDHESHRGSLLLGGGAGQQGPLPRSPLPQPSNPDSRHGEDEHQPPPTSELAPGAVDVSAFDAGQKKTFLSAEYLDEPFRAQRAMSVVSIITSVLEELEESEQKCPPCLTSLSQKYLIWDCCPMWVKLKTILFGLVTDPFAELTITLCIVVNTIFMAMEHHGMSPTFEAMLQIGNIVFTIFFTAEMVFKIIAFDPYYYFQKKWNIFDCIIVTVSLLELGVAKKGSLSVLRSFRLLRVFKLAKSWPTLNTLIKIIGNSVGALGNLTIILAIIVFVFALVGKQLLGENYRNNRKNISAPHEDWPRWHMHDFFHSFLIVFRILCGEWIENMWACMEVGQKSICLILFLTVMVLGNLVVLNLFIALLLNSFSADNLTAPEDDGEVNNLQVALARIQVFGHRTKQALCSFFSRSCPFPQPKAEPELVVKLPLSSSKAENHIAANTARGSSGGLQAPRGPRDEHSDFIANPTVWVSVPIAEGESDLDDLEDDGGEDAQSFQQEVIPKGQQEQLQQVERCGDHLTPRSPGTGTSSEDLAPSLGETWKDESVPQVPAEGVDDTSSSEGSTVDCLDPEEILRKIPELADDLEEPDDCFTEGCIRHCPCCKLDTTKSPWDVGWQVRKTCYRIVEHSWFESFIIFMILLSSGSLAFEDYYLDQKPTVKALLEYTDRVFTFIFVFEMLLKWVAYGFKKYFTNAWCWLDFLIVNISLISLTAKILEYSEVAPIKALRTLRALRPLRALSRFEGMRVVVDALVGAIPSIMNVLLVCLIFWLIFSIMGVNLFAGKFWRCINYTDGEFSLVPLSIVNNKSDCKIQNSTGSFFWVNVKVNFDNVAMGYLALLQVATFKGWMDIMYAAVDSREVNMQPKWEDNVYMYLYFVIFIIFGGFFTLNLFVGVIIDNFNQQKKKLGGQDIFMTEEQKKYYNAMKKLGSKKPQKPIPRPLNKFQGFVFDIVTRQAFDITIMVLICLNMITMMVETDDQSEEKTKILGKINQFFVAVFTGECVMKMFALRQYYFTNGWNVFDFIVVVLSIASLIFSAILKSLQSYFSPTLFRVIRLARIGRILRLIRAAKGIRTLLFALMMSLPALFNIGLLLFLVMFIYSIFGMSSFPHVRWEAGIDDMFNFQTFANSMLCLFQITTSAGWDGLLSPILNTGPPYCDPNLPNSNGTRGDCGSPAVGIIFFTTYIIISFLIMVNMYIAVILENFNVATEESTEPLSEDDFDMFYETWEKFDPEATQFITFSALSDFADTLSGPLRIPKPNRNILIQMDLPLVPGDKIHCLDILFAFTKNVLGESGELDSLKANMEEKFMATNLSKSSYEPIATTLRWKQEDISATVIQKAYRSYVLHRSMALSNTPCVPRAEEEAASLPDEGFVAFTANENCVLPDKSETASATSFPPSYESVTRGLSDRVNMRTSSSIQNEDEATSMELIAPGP

Recorded IC50, per entry:
{"columns": ["Compound", "Observed Value"],
 "data": [
  ["Cc1nc(N2CCC3(CC2)CC3)c(C(=O)Nc2cccc(S(C)(=N)=O)c2)cc1C(F)(F)F (stereo not drawn) [Example 25]", "≤ 5 nM"],
  ["Cc1c(-c2cnn(C)c2)cnc(N2CCCC(F)(F)CC2)c1C(=O)Nc1cccc([S@@](C)(=O)=NC(=O)CO)c1 [Example 229]", "5 to 50 nM"]
]}

Query compound follows.
Q. What IC50 appears in the records for this compound with UniProt Q9Y5Y9? CNCC(=O)N=[S@](C)(=O)c1cccc(NC(=O)c2c(N3CCCC(F)(F)CC3)ncc(C(F)(F)F)c2C)c1 [Example 194]
A. ≤ 5 nM

The origin of these recorded values is patent US20250154109A1.
